# System: N-methyl-D-aspartic acid (NMDA)-induced seizures
# assay: N-Methyl-D,L-Aspartic Acid Induced Seizure Assay (NMDA protection)
# Type: in vivo, male Swiss Webster mice
# experimental setup: Mus musculus, 0.5 h; ip; N-methyl-D,L-aspartic acid 350 mg/kg, sc; total absence of clonic seizures during 30 minutes
Exercise: for every item that follows, state its recorded ED50.
Write it as a number; the unit mg/kg goes unstated.

Task: Returns the measured ED50 for the input molecule. Input: Cc1ccsc1C(N)Cc1ccccc1N.Cl.Cl (stereo not shown)
Output: 19

Task: Subsequent entry: CNC(Cc1ccccc1N)c1sccc1C (stereo not shown)
Output: 26.7

Task: Item: NC(CCCP(=O)(O)O)C(=O)O (stereo not shown) [2-Amino-5-phosphonovaleric acid, reference compound]
Output: 48.5

Task: Also need CNC(Cc1ccc(C(F)(F)F)cc1N)c1sccc1C (stereo not shown) , thanks.
Output: 26.4
